- measurement-protocol: Stability test at room temperature
- Assay type: physicochemical
- experimental-conditions: sealed medicinal low density polyethylene bags, HPLC

# molecule, units-text, Purity after 180 days
rows = [
    ("COC(=O)C1=C2C[C@H](NS(N)(=O)=O)CN2C(c2nccs2)=N[C@H]1c1ccc(F)c(F)c1F [Crystalline form VII]", "%", 99.5),
    ("COC(=O)C1=C2C[C@H](NS(N)(=O)=O)CN2C(c2nccs2)=N[C@H]1c1ccc(F)c(F)c1F [Crystalline form II]", "%", 99.5),
    ("COC(=O)C1=C2C[C@H](NS(N)(=O)=O)CN2C(c2nccs2)=N[C@H]1c1ccc(F)c(F)c1F [Crystalline form VI]", "%", 99.7),
    ("COC(=O)C1=C2C[C@H](NS(N)(=O)=O)CN2C(c2nccs2)=N[C@H]1c1ccc(F)c(F)c1F [Crystalline form IV]", "%", 99.3),
]
